Test: Plasma pharmacokinetics after multiple doses (cycle 2, steady state), LC-MS/MS
Assay type: in vivo, human
Settings: human, plasma, oral, 2 mg, multiple dose, steady state; Schedule A (5 days on, 2 days off), 2.0 mg, n = 7; read-out: AUC(0–T), GM (%CV)
Attribute Measured: AUC(0-t) (ng·h/mL)

# Molecule, Attribute Measured, Value Observed
measured = [
    ("Cc1nnn(C)c1-c1cnc2c3ccc(C(C)(C)O)cc3n([C@H](c3ccccc3)C3CCOCC3)c2c1 [BMS-986158]", "AUC(0-t)", 7610),
]

* * *

Assay: Plasma pharmacokinetics after single dose (C1D1), LC-MS/MS
Type: in vivo, human
Details: human, plasma, oral, 0.75–4.5 mg, read-out: Time to peak plasma concentration (median Tmax)

# Compound, Tmax
rows = [
    ("Cc1nnn(C)c1-c1cnc2c3ccc(C(C)(C)O)cc3n([C@H](c3ccccc3)C3CCOCC3)c2c1 [BMS-986158]", "1 to 4 h"),
]
